Hey, just so you know, these numbers are from ChEMBL document CHEMBL4382218.

selectivity ratio: recorded values
# Method: Selectivity index, ratio of IC50 for HEK293T cells to MIC for Candida albicans ATCC MYA-2876
# Type: toxicity
# Experimental conditions: human, read-out: Selectivity Index
Property measured: selectivity ratio

Compound	Reported value
C[C@@H]1C[C@H](C)C[C@H](C)[C@@H](O)CC(=O)O[C@H]([C@@H]2CCC[C@H]2C(=O)OCCN2CCN(CC3CC3)CC2)C/C=C/C=C(/C#N)[C@H](O)[C@@H](C)C1	< 0.17
C[C@@H]1C[C@H](C)C[C@H](C)[C@@H](O)CC(=O)O[C@H]([C@@H]2CCC[C@H]2C(=O)O)C/C=C/C=C(/C#N)[C@H](O)[C@@H](C)C1 [BORRELIDIN]	< 0.14
C[C@@H]1C[C@H](C)C[C@H](C)[C@@H](O)CC(=O)O[C@H]([C@@H]2CCC[C@H]2C(=O)OCCN2CCN(CCC3OCCO3)CC2)C/C=C/C=C(/C#N)[C@H](O)[C@@H](C)C1	< 0.7
C[C@@H]1C[C@H](C)C[C@H](C)[C@@H](O)CC(=O)O[C@H]([C@@H]2CCC[C@H]2C(=O)OCCN2CCN(CC3CCCCC3)CC2)C/C=C/C=C(/C#N)[C@H](O)[C@@H](C)C1	< 0.23
C[C@@H]1C[C@H](C)C[C@H](C)[C@@H](O)CC(=O)O[C@H]([C@@H]2CCC[C@H]2C(=O)OCCn2ccnc2)C/C=C/C=C(/C#N)[C@H](O)[C@@H](C)C1	< 0.18
C=CCN1CCN(CCOC(=O)[C@@H]2CCC[C@H]2[C@@H]2C/C=C/C=C(/C#N)[C@H](O)[C@@H](C)C[C@H](C)C[C@H](C)C[C@H](C)[C@@H](O)CC(=O)O2)CC1	< 0.22
